Test: Terminal half life in rat at 2 mg/kg, po
Assay type: ADME, organism-based
Parameters: dose 2 mg/kg, route oral
Conditions: in vivo, read-out: beta t1/2 (converted)
quantityName: half-life (h)
Output spec: scalar in h, unitless text.

Problem: Please look up its half-life: C[C@H](Oc1ccc(S(C)(=O)=O)cc1C(=O)N1Cc2cc(C(F)(F)F)cnc2C1)C(F)(F)F
Solution: 6

* * *

Biological target: Sodium- and chloride-dependent glycine transporter 1 (Homo sapiens, UniProt P48067)
Sequence (P48067 whole entry): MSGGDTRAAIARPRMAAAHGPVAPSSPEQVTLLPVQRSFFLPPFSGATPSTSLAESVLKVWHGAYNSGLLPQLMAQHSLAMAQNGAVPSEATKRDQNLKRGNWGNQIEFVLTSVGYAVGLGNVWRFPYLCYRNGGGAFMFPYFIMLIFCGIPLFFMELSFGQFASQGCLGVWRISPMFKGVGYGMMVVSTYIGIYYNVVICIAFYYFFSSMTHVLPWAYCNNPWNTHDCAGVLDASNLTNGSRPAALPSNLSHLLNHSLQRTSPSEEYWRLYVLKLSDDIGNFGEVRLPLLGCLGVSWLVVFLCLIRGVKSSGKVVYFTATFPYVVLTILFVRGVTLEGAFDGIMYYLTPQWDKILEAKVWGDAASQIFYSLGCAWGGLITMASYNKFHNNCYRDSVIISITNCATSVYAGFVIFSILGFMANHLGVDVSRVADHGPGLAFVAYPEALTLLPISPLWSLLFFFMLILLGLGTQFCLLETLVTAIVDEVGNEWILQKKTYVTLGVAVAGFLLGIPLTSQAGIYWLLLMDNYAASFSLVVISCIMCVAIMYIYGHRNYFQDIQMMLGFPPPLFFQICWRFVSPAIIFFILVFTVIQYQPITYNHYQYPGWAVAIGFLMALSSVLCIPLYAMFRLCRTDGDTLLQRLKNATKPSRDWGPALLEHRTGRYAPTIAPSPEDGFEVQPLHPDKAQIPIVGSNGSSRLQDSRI
Experiment: Inhibition of human GlyT1 expressed in CHO cells assessed as inhibition of [3H]glycine uptake by liquid scintillation counting
Type: cell-based
pEC50: −log10 of the molar value.
Would you mind labelling by pEC50? At or over 6 is 1 (yes), under is 0 (no).

C[C@H](Oc1ccc(S(C)(=O)=O)cc1C(=O)N1Cc2ccc(C3CCOCC3)cc2C1)C(F)(F)F; 1 (yes)

Problem: # check: pEC50 of C[C@H](Oc1ccc(S(C)(=O)=O)cc1C(=O)N1Cc2ccc(C(F)(F)F)cc2C1)C(F)(F)F is greater than or equal to 6
Solution: 1 (yes)

Problem: Check the entry CS(=O)(=O)c1ccc(-c2ccc(F)cc2)c(C(=O)N2Cc3ccc(C4CCOCC4)cc3C2)c1 : does pEC50 equal or exceed 6?
Solution: 1 (yes)

* * *

Test: Volume of distribution at steady state in rat at 2 mg/kg, iv
Assay type: ADME, organism-based
Parameters: dose 2 mg/kg, route intravenous
Settings: in vivo, read-out: Vdss
quantityName: Vd (L/kg)
Express your answer in L/kg, writing the number without its unit.

Problem: Entry C[C@H](Oc1ccc(S(C)(=O)=O)cc1C(=O)N1Cc2cc(C(F)(F)F)cnc2C1)C(F)(F)F has what Vd?
Solution: 1.4

* * *

Test: Volume of distribution at steady state in rat at 2.2 mg/kg, iv
Assay type: ADME, organism-based
Set-up: dose 2.2 mg/kg, route intravenous
Conditions: in vivo, read-out: Vdss
quantityName: Vd (L/kg)
Reply numerically in L/kg, unit not repeated.

Problem: # Vd lookup, item C[C@H](Oc1ccc(S(C)(=O)=O)cc1C(=O)N1Cc2ccc(C3CCOCC3)cc2C1)C(F)(F)F
Solution: 3.7

* * *

System: Mus musculus
Experiment: Antipsychotic activity in po dosed mouse assessed as inhibition of L-687414-induced hyperlocomotion after 60 mins
Format: functional
Conditions: 1 h, read-out: ID50 (the source's name)
Mark each entry t if its ED50 sits below 0.5 mg/kg, and f for all others.

CS(=O)(=O)c1ccc(-c2ccc(F)cc2)c(C(=O)N2Cc3ccc(C4CCOCC4)cc3C2)c1; t
C[C@H](Oc1ccc(S(C)(=O)=O)cc1C(=O)N1Cc2ccc(-c3ccccc3)cc2C1)C(F)(F)F; f
C[C@H](Oc1ccc(S(C)(=O)=O)cc1C(=O)N1Cc2ccc(-c3ccncc3)cc2C1)C(F)(F)F; f
CC(C)Oc1ccc(S(C)(=O)=O)cc1C(=O)N1Cc2cc(C(F)(F)F)cnc2C1; f

Problem: Hello, is ED50 of the following molecule strictly smaller than 0.5 mg/kg? CS(=O)(=O)c1ccc(OCCC(F)(F)F)c(C(=O)N2Cc3cc(C(F)(F)F)cnc3C2)c1
Solution: f

Problem: Identify whether the molecule C[C@H](Oc1ccc(S(C)(=O)=O)cc1C(=O)N1Cc2ccc(Cl)cc2C1)C(F)(F)F records ED50 below 0.5 mg/kg.
Solution: f

Problem: Find out if reported ED50 for C[C@H](Oc1ccc(S(C)(=O)=O)cc1C(=O)N1Cc2ccc(C(F)(F)F)cc2C1)C(F)(F)F is less than 0.5 mg/kg
Solution: f

Problem: Does C[C@H](Oc1ccc(S(C)(=O)=O)cc1C(=O)N1Cc2cc(C(F)(F)F)cnc2C1)C(F)(F)F have ED50 strictly under 0.5 mg/kg?
Solution: t

Problem: In plain terms, does CS(=O)(=O)c1ccc(-c2ccc(F)c(F)c2)c(C(=O)N2Cc3cc(C(F)(F)F)cnc3C2)c1 come in under 0.5 mg/kg for ED50?
Solution: f
